# Lookup of reported IC50 keyed by entry
Molecular target: TRKA (Homo sapiens (Human))
Test: Isolated TRK enzyme assay (HTRF KinEASE-TK), TRKA
Type: biochemical
Settings: read-out: Trka enzyme (IC50)
Sequence (P04629 441-796): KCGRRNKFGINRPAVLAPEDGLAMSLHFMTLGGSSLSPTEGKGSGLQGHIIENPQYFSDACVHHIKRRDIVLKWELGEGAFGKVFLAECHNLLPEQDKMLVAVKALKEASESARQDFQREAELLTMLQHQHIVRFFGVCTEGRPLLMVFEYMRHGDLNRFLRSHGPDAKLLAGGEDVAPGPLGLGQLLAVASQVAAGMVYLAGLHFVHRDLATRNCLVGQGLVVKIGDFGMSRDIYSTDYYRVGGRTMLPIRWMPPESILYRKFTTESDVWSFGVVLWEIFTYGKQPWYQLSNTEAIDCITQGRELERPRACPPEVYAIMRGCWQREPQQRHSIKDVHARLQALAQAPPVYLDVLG
Measurement Label: IC50 (nM)

CC1(n2cc(C(=O)c3cncc(NC(=O)Cc4ccc(Cl)cc4)c3)c3cncnc32)COC1 [Example 309] = 53.9
CC(C)n1cc(C(=O)c2cncc(NC(=O)CN3CCc4cccnc4C3)c2)c2cncnc21 [Example 517] = 4390
CC(C)n1cc(C(=O)c2cncc(NC(=O)c3ncc4ccccn34)c2)c2cncnc21 [Example 417] = 71.2
CC(C)n1cc(C(=O)c2cncc(NC(=O)c3cc4occc4cn3)c2)c2cncnc21 [Example 455] = 1070
Cn1cc(C(=O)c2cncc(NC(=O)CCc3ccccc3F)c2)c2cncnc21 [Example 327] = 3100
CC1(n2cc(C(=O)c3cncc(NC(=O)Cn4ccc(C(F)(F)F)n4)c3)c3cncnc32)COC1 [Example 311] = 238
CC(C)n1cc(C(=O)c2cncc(NC(=O)Cn3nnnc3-c3ccccc3)c2)c2cncnc21 [Example 378] = 716

###

Target: TRKA (Homo sapiens (Human))
Test: Cell based DiscoveRx PathHunter antagonist assay, TRKA cell line
Conditions: read-out: TrkA cell potency
Sequence (P04629 33-796): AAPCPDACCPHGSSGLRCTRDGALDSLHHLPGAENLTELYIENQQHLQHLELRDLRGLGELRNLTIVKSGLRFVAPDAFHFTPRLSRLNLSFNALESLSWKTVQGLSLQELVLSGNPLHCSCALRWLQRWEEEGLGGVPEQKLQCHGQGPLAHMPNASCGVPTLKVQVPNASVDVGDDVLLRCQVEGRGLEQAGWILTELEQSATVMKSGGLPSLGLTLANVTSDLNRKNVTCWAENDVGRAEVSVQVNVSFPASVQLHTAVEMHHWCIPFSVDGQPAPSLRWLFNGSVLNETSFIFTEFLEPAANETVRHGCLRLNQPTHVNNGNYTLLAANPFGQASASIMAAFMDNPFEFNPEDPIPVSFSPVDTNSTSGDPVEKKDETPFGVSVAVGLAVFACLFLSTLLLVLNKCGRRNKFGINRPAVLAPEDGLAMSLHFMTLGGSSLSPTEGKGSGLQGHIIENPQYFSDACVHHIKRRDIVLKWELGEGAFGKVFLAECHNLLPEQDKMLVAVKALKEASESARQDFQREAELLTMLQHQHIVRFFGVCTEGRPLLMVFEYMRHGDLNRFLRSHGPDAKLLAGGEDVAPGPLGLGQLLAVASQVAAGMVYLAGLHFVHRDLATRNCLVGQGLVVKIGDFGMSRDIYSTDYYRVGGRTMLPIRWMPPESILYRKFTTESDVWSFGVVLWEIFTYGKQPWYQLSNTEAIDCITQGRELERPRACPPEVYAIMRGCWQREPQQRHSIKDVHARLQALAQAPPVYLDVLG
# Lookup of reported log10 IC50 keyed by entry
Measurement Label: log10 IC50 (log10 of the value in nM)

CC(C)(CO)n1cc(C(=O)c2cncc(NC(=O)Cn3cc(C(F)(F)F)nn3)c2)c2cnc(N)nc21 = 2.57
CC(C)(CO)n1cc(C(=O)c2cncc(NC(=O)Cc3ccc(C(F)(F)F)cc3)c2)c2cnc(N)nc21 = 0.46
CC(C)(C)n1cc(C(=O)c2cncc(NC(=O)Cc3ccc(Cl)cn3)c2)c2cncnc21 = 0.30
CC(CO)n1cc(C(=O)c2cncc(NC(=O)Cn3ccc(C(F)(F)F)n3)c2)c2cnc(N)nc21 (single isomer, unassigned) [Example 38] = 3.03
CC(C)(CO)n1cc(C(=O)c2cncc(NC(=O)Cc3ccc(C(F)(F)F)cc3)c2)c2cncnc21 = 0.59
Cc1cc(C(F)(F)F)nn1CC(=O)Nc1cncc(C(=O)c2cn([C@@H](C)CO)c3ncncc23)c1 = 1.48
CC(CO)n1cc(C(=O)c2cncc(NC(=O)Cn3cc(C4CC4)cn3)c2)c2cncnc21 (stereo not shown) = 1.81
CC(C)(CO)n1cc(C(=O)c2cncc(NC(=O)Cn3cc(C4CC4)nn3)c2)c2cncnc21 = 2.60
CC(C)(CO)n1cc(C(=O)c2cncc(NC(=O)Cn3nc4ccccc4n3)c2)c2cnc(N)nc21 = 1.08
C[C@@H](CO)n1cc(C(=O)c2cncc(NC(=O)Cn3nc4ccccc4n3)c2)c2cncnc21 = 2.16
CC(CO)n1cc(C(=O)c2cncc(NC(=O)Cc3ccc(C(F)(F)F)cc3)c2)c2cnc(N)nc21 (single isomer, unassigned) [Example 36] = 1.04
CC(C)(C)n1cc(C(=O)c2cncc(NC(=O)Cn3ccc(C(F)(F)F)n3)c2)c2cncnc21 = 0.54
C[C@H](CO)n1cc(C(=O)c2cncc(NC(=O)Cc3ccc(C(F)(F)F)cc3)c2)c2cncnc21 = 1.34

###

Target: TRKA (Homo sapiens (Human), UniProt P04629)
Experiment: Isolated TRK enzyme assay (HTRF KinEASE-TK), TRKA
Type: biochemical
Details: read-out: Trka enzyme (IC50)
pIC50: −log10 of the molar value.
# Lookup of reported pIC50 keyed by entry
Measurement Label: pIC50

O=C(Cc1ccc(C(F)(F)F)cc1)Nc1cncc(C(=O)c2cn(C(CO)CO)c3ncncc23)c1 [Example 273] = 6.47
O=C(Cc1ccc(Cl)cn1)Nc1cncc(C(=O)c2cn(C3(CO)COC3)c3ncncc23)c1 [Example 301] = 6.37
COCc1ccc(CC(=O)Nc2cncc(C(=O)c3cn(C)c4ncncc34)c2)cc1 [Example 333] = 5.01
Cn1cc(C(=O)c2cncc(NC(=O)Cc3ccccc3)c2)c2cncnc21 [Example 179] = 5.51
Cn1cc(C(=O)c2cncc(NC(=O)Nc3ccc(Cl)cc3)c2)c2cncnc21 [Example 293] = 7.69
CN(C(=O)Cc1ccc(F)cc1)c1cncc(C(=O)c2cn(C(C)(C)C)c3ncncc23)c1 [Example 540] = 6.82
